experiment: NCI Yeast Anticancer Drug Screen. Data for the sgs1 mgt1 strain (AID 161);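 also: 0% = growth of cultures given vehicle only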; conditions: S. cerevisiae sgs1 mgt1 strain, at 50.0 µM, active compounds read high
The panel holds about 79,000 compounds, 15% with a hit somewhere; the sample as a whole holds those more often. Calls of active or inactive are those of the source. Rule as the data show it: active = growth inhibition above about 70%; inactive = the rest. Where a SMILES comes first, the peptide text is derived from it. The star is where a group is joined. Trt = c1ccc(C(c2ccccc2)(c2ccccc2)*)cc1; Cbz = O=C(OCc1ccccc1)*; Bz = O=C(c1ccccc1)*

{"compound": "COC(=O)C(CSC(=O)c1ccccc1)NC(=O)CNC(=O)CNC(=O)C(CCCCNC(=O)OCc1ccccc1)NC(=O)CNC(=O)C(CSC(c1ccccc1)(c1ccccc1)c1ccccc1)NC(=O)OCc1ccccc1 (stereo not drawn) (Cbz-C(Trt)GK(Cbz)GGC(Bz)-OMe; configuration not given here)", "growth inhibition": "25.8% (inactive)"}
{"compound": "CN=C(Nc1cccc(C(F)(F)F)c1)SCc1ccc(N=C=S)cc1", "growth inhibition": "60% (inactive)"}
{"compound": "c1ccc([P+](c2ccccc2)(c2ccccc2)C2c3ccccc3CCc3ccccc32)cc1", "growth inhibition": "99.5% (active)"}
{"compound": "Cc1ccc(/C(O)=C/c2nc3ccccc3oc2=O)cc1", "growth inhibition": "-7.5% (inactive)"}
{"compound": "CC(C)Cc1c(N)nc(NCCCC(N)C(=O)O)[nH]c1=O (stereo not drawn)", "growth inhibition": "-3.55% (inactive)"}
{"compound": "C=C(C)Cc1cc(C(CC)C(CC)c2ccc(O)c(CC(=C)C)c2)ccc1O (stereo not drawn)", "growth inhibition": "47.2% (inactive)"}
{"compound": "Cc1ccsc1C(=O)C(CC(=O)c1cccs1)c1ccsc1 (stereo not drawn)", "growth inhibition": "-0.9% (inactive)"}
{"compound": "CC(=O)N=C1N(/C=C2\\C(=O)Oc3ccccc3C2=O)C(=O)/C(=C/c2ccccc2Cl)N1C", "growth inhibition": "-25.7% (inactive)"}

----------
assay: NCI Yeast Anticancer Drug Screen. Data for the sgs1 mgt1 strain (AID 161);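 also: 0% = growth of cultures given vehicle only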; conditions: S. cerevisiae sgs1 mgt1 strain, at 50.0 µM
This is part of a sample that, as a whole, favours compounds with a hit. Of some 79,000 tested, about 15% had one in any assay. Activity calls are given as the source filed them. No stated cut-off is given here; in the data, active means growth inhibition above about 70%; inactive means the rest.
Classes used: active, inactive

{"compound": "NC(=O)N/N=C/c1c(Cl)cccc1Cl", "assigned.category": "inactive"}
{"compound": "COc1cccc(C2ON=C(c3ccccc3)N2C23CC4CC(CC(C4)C2)C3)c1 (centres undefined)", "assigned.category": "inactive"}
{"compound": "CN1c2ccccc2C(=O)NC12CCN(CCCC(=O)c1ccc(F)cc1)CC2", "assigned.category": "inactive"}
{"compound": "CSc1cccc(N)c1", "assigned.category": "inactive"}
{"compound": "CC(C)(C)c1ccn[nH]1.CC(C)(C)c1ccn[nH]1.[Cl-].[Cl-].[O]=[V][O-]", "assigned.category": "inactive"}
{"compound": "CCCCNC(=O)Nc1cc(C)ccc1C", "assigned.category": "inactive"}
{"compound": "CCOC(=O)c1ccc(CSc2ccccc2C(=O)OCC)cc1", "assigned.category": "inactive"}
{"compound": "O=COCCO", "assigned.category": "inactive"}
{"compound": "O=C1/C(=C/c2ccccc2)CN(C(=O)CCN2CCOCC2)C/C1=C\\c1ccccc1", "assigned.category": "active"}
{"compound": "CC(=O)C(Cc1ccccc1)(Cc1ccccc1)C(C)=O", "assigned.category": "inactive"}
{"compound": "O=C1OC(=O)C2C3CCC(O3)C12 (centres undefined)", "assigned.category": "inactive"}
{"compound": "S=C(NNC(=S)Nc1ccccc1)Nc1ccccc1", "assigned.category": "inactive"}
{"compound": "O=C(Nc1ccc(CCc2ccc(NC(=O)C34CC5CC(CC(C5)C3)C4)cc2)cc1)C12CC3CC(CC(C3)C1)C2", "assigned.category": "inactive"}
{"compound": "CCCn1c(C)nc2cc(C)cc(N)c21", "assigned.category": "inactive"}
{"compound": "O=C1c2cc3ccccc3cc2NC(O)c2cccn21 (centres undefined)", "assigned.category": "inactive"}
{"compound": "CC(C)N(C(=O)C12C3C4C5(C(=O)O)C(C1C35I)C42C(=O)O)C(C)C (centres undefined)", "assigned.category": "inactive"}
{"compound": "CCCC(O)CN (centres undefined)", "assigned.category": "inactive"}
{"compound": "CO[C@@H]1[C@@H](O)c2ccccc2N1C(C)=O", "assigned.category": "inactive"}
{"compound": "Cc1ccc(N=C=Nc2ccc(C)cc2)cc1", "assigned.category": "inactive"}
{"compound": "Nc1ccc(/C=C/C(=O)O)cc1", "assigned.category": "inactive"}
{"compound": "COc1cc(OC)c(NC2=CC(c3ccc(Cl)cc3)OC2=O)cc1Cl (centres undefined)", "assigned.category": "inactive"}
{"compound": "O=S(=O)(O)SCCCNCCCCCCCCNCCCSS(=O)(=O)O", "assigned.category": "inactive"}
{"compound": "Cc1ccc2ccccc2c1Br", "assigned.category": "inactive"}
{"compound": "CC(=O)NC(Cc1ccc(OC(C)=O)c(OC(C)=O)c1)C(C)=O (centres undefined)", "assigned.category": "inactive"}
{"compound": "S=C(NCc1ccncc1)Nc1ccccc1Cl", "assigned.category": "inactive"}
{"compound": "Cc1ccc(-c2cc(=O)c(=O)[nH][nH]2)cc1", "assigned.category": "inactive"}
{"compound": "Cc1cc2c3c(nc2c2cc[nH]c(C)c12)CCCC3", "assigned.category": "active"}
{"compound": "Cc1ccc(NC(=S)SCc2ccc(Cl)c(Cl)c2)cc1Br", "assigned.category": "inactive"}
{"compound": "CN(CO)N=Nc1ccc(C(F)(F)F)cc1", "assigned.category": "inactive"}
{"compound": "CSc1ncnc2[nH]ncc12", "assigned.category": "inactive"}
{"compound": "CCC(=O)c1c(O)c2ccccc2oc1=O", "assigned.category": "inactive"}
{"compound": "COC1OC(CO)C(O)C(NC(=O)OCc2ccccc2)C1O (centres undefined)", "assigned.category": "inactive"}
{"compound": "CC(=O)CC(=O)Nc1ccccc1C", "assigned.category": "inactive"}
{"compound": "CSc1nc2c(N)ncnc2n1C", "assigned.category": "inactive"}
{"compound": "Cc1ccc(/C=N/NC(=O)c2ccccc2NC(=O)c2ccccc2)cc1", "assigned.category": "active"}
{"compound": "C(=N/OCc1ccccc1)/c1ccncc1", "assigned.category": "inactive"}
{"compound": "CCN1C(=O)CS/C1=N/NC(=O)C(O)(c1ccccc1)C1C=CC=CC1 (centres undefined)", "assigned.category": "inactive"}
{"compound": "Cn1c(=O)c2[nH]c(Cl)nc2n(C)c1=O", "assigned.category": "inactive"}
{"compound": "O=C(O)c1ccccc1C(=O)Nc1ccc2ccccc2c1", "assigned.category": "inactive"}
{"compound": "CCCCCCCCCCCCCCCCCCCCCC(=O)O", "assigned.category": "inactive"}
{"compound": "C/C(=N/Nc1ccc([N+](=O)[O-])cc1[N+](=O)[O-])C(CC(C(=O)Nc1ccccc1C)/C(C)=N\\Nc1ccc([N+](=O)[O-])cc1[N+](=O)[O-])C(=O)Nc1ccccc1C (centres undefined)", "assigned.category": "inactive"}
{"compound": "O=C(/C(=N/O)c1ccc(Cl)cc1)c1ccccc1", "assigned.category": "active"}
{"compound": "Clc1cccc(-c2nnc(-c3nn(-c4ccccc4)c4nc5ccccc5nc34)o2)c1", "assigned.category": "inactive"}
{"compound": "COC(=O)c1ccc(/C=C(\\c2ccc([N+](=O)[O-])o2)S(=O)(=O)c2ccc(NC(C)=O)cc2)o1", "assigned.category": "active"}
{"compound": "O=C(Nc1cc2cc([N+](=O)[O-])ccc2oc1=O)c1cccs1", "assigned.category": "inactive"}
{"compound": "CC(=O)Nc1ncc(Sc2ccc([N+](=O)[O-])cc2)s1", "assigned.category": "inactive"}
{"compound": "Cn1c(-c2ccccc2)c2c(=O)oc3ccccc3c2c1-c1ccccc1", "assigned.category": "inactive"}
{"compound": "N#CC(C#N)=C/C=C/C=C/c1c(Cl)cccc1Cl", "assigned.category": "inactive"}
{"compound": "O=S(=O)(NOCCCCONS(=O)(=O)c1ccccc1)c1ccccc1", "assigned.category": "inactive"}

src = PubChem BioAssay (NCI)
